// provenance: the supplement of paper PMC10126150

Tested on: ATP;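 note: ATP exposure 15 min at 22 °C before imaging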
assay-overview: switch fluorescence ratio, 500 uM ATP over buffer (Cy3 cluster intensity, sum of 5 cycles each) (fold (ratio)); higher = stronger signal-on switching upon ATP binding; sequences stand for … in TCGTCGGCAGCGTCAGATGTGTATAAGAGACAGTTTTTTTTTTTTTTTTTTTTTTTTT…TC
assay-setup: aptamer strand: ATP DNA aptamer (quencher-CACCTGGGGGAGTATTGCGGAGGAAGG + anchor), 100 nM annealed; ATP concentration: 500 uM
Rule: switch fluorescence ratio of 1 or more gives MET; anything lower gives NOT MET.

The following sequences have reported results that may help.
{"query-sequence": "AGAAGAGGTA", "cat": "NOT MET"}
{"query-sequence": "GAAAGGTCGG", "cat": "MET"}
{"query-sequence": "ATATCTAGCC", "cat": "NOT MET"}
{"query-sequence": "TCGGGATAGG", "cat": "MET"}
{"query-sequence": "CTAGTACGGG", "cat": "MET"}
{"query-sequence": "AGCCCATACG", "cat": "MET"}
{"query-sequence": "CCCCGGGGTT", "cat": "MET"}
{"query-sequence": "AGGTAATGAA", "cat": "NOT MET"}

Input: Is reported switch fluorescence ratio greater than or equal to 1 here: `AATTAGATAC`
Output: MET

Input: Moving on to the next sequence: `GTGGGAGGAC`
Output: MET

Input: Moving on to the next sequence: `TTCATATTGT`
Output: NOT MET

Input: Moving on to the next sequence: `ATTTTTGCGC`
Output: MET

Input: Moving on to the next sequence: `CCTAGGCTTT`
Output: MET
